Test system: Wi-38 normal human lung fibroblast cells
Assay: MTT assay against normal human cell line
Format: cell-based
Settings: MTT, 72 h; SI calls it EC100, dose at 100% cell viability; mean ± SEM
Please respond with reported Wi-38 IC100 for every item in the list.
Write down the numeric answer in µM and omit the unit.

Form field - read-out: Wi-38 IC100; system: Wi-38 normal human lung fibroblast cells; submitted item: CC(=O)Nc1c(N)nc(SCC(=O)N/N=C/c2ccc(Cl)cc2)[nH]c1=O
0.037

Form field - read-out: Wi-38 IC100; system: Wi-38 normal human lung fibroblast cells; submitted item: Cc1cc(=O)n2c(C)nn(CC(=O)N/N=C/c3ccc(Br)cc3)c2n1
0.111

Form field - read-out: Wi-38 IC100; system: Wi-38 normal human lung fibroblast cells; submitted item: COC(=O)Cn1nc(C)n2c(=O)cc(C)nc12
0.237

Form field - read-out: Wi-38 IC100; system: Wi-38 normal human lung fibroblast cells; submitted item: Cc1cc(=O)n2c(C)nn(CC(=O)N/N=C/c3ccc(Cl)cc3)c2n1
0.124
